- testedOn: T1, BSA-conjugated human MS4A4A ECL2 peptide (amino acid residues 159-179) (human, conjugated to BSA (site not stated))
- T1 construct: also called MS4A4A-ECL2 BSA conjugated peptide; BSA-MS4A4A-ELC2 peptide
- T1 peptide: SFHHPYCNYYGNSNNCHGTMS
- experiment: ELISA, supernatant

binder	binding result
anti-MS4A4A antibody 4A-9 (antibody, V domains shown, murine hybridoma antibody) VH: DVQLQESGPGLVKPSQSLSLTCSVTGYSITSGYYWNWIRQFPGNKLEWMGYISYDGNNKYNPSLKNRISITRDTSKNQFFLKLNSVTTEDTATYYCANRDYWGQGTTLTVSS VL: DVLMTQTPLSLPVSLGDQASISCRSSQNIVHSNGITYLEWFLQKPGQSPTLLIYKISNRFSGVPDRFSGSGSGTDFTLKISRVEAEDLGVYYCFQGSHVPYTFGGGTKLDIK	binds
